# Experimental target: Proteasome Macropain subunit MB1 (Homo sapiens)
# Sequence (P28074 whole entry): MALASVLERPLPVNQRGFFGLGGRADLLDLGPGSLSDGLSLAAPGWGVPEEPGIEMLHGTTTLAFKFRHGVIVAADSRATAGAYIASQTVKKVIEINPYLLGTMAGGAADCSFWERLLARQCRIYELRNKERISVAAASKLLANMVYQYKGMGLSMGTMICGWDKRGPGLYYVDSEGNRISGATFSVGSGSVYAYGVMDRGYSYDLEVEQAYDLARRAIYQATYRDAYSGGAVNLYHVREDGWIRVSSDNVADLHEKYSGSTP
# Protocol: Inhibition of 20S proteosome beta 5 purified from human HCT116 cells using Suc-LLVY-AMC as substrate incubated for 30 to 120 mins by fluorimetry
Readout kind: pIC50
Hey, just a heads up that pIC50 is the negative log base 10 of the concentration in molar.

Answer with the recorded pIC50 of CC(C)C[C@H](NC(=O)OCc1ccccc1)C(=O)N[C@@H](CC(C)C)C(=O)N[C@@H](CC(C)C)C(O)C(=O)Nc1cccc2ccccc12 (some centres undefined) only.
5.09

Answer with the recorded pIC50 of CC(C)C[C@H](NC(=O)OCc1ccccc1)C(=O)N[C@@H](CC(C)C)C(=O)N[C@@H](CC(C)C)C(O)C(=O)NCc1ccccc1 (some centres undefined) only.
6.28

Answer with the recorded pIC50 of CC(C)C[C@H](NC(=O)OCc1ccccc1)C(=O)N[C@@H](Cc1ccc(O)cc1)C(O)C(=O)NCc1ccccc1 (some centres undefined) only.
4.15

Answer with the recorded pIC50 of `CC(C)C[C@H](NC(=O)OCc1ccccc1)C(=O)N[C@@H](CC(C)C)C(=O)N[C@@H](CC(C)C)C(=O)C(=O)NCc1ccc(F)cc1` only.
7.25

Answer with the recorded pIC50 of `CC(C)C[C@H](NC(=O)OCc1ccccc1)C(=O)N[C@@H](CC(C)C)C(=O)C(=O)NCc1ccccc1` only.
6.04

Answer with the recorded pIC50 of `CC(C)C[C@H](NC(=O)OCc1ccccc1)C(=O)N[C@H](C(=O)C(=O)NCc1ccccc1)C(C)C` only.
4.20

Answer with the recorded pIC50 of CC(C)C[C@H](NC(=O)OCc1ccccc1)C(=O)N[C@@H](CC(C)C)C(O)C(=O)NCc1ccccc1 (some centres undefined) only.
4.30

----------
# Experimental target: Proteasome Macropain subunit MB1 (Homo sapiens, UniProt P28074)
# Protocol: Inhibition of 20S proteosome beta 5 purified from human HCT116 cells using Suc-LLVY-AMC as substrate incubated for 30 to 120 mins by fluorimetry
Readout kind: pIC50
Hey, just a heads up that pIC50 is the negative log base 10 of the concentration in molar.

Answer with the recorded pIC50 of `CC(C)C[C@H](NC(=O)OCc1ccccc1)C(=O)N[C@@H](CC(C)C)C(=O)N[C@@H](CC(C)C)C(=O)C(=O)NCc1ccccc1` only.
7.85

Answer with the recorded pIC50 of `CC(C)C[C@H](NC(=O)OCc1ccccc1)C(=O)N[C@@H](Cc1ccccc1)C(=O)C(=O)NCc1ccccc1` only.
4.29

Answer with the recorded pIC50 of `CC(C)C[C@H](NC(=O)OCc1ccccc1)C(=O)N[C@@H](CC(C)C)C(=O)N[C@@H](CC(C)C)C(=O)C(=O)Nc1cccc2ccccc12` only.
8.15

Answer with the recorded pIC50 of `CC(C)CNC(=O)C(=O)[C@H](CC(C)C)NC(=O)[C@H](CC(C)C)NC(=O)[C@H](CC(C)C)NC(=O)OCc1ccccc1` only.
7.92
